tested on: P. aeruginosa NR-31040; test: microbe, parasite or virus in culture; settings: strain NR-31040; antibiotic + D-11 (MICb/MICbc 128/4)

{"molecule": "C[C@@H]1O[C@@H]1P(=O)(O)O [Fosfomycin]", "FICI": 0.531}
{"molecule": "C[C@H]1COc2c(N3CCN(C)CC3)c(F)cc3c(=O)c(C(=O)O)cn1c23 [Levofloxacin]", "FICI": 0.281}
{"molecule": "CO[C@H]1/C=C/O[C@@]2(C)Oc3c(C)c(O)c4c(O)c(c5c(nc6cc(C)ccn65)c4c3C2=O)NC(=O)/C(C)=C\\C=C\\[C@H](C)[C@H](O)[C@@H](C)[C@@H](O)[C@@H](C)[C@H](OC(C)=O)[C@@H]1C [Rifaximin]", "FICI": 0.094}
{"molecule": "CC1(C)S[C@@H]2[C@H](NC(=O)C(C(=O)O)c3ccccc3)C(=O)N2[C@H]1C(=O)O (stereo partly drawn) [Carbenicillin]", "FICI": 1.031}
{"molecule": "C[C@H]1[C@H](NC(=O)/C(=N\\OC(C)(C)C(=O)O)c2csc(N)n2)C(=O)N1S(=O)(=O)O [Aztreonam]", "FICI": 0.281}
{"molecule": "CO[C@@H]1[C@@H](OC(=O)c2ccc(C)[nH]2)[C@@H](O)[C@H](Oc2ccc3c(O)c(NC(=O)c4ccc(O)c(CC=C(C)C)c4)c(=O)oc3c2Cl)OC1(C)C [Chlorobiocin]", "FICI": 1.031}
